Values compiled from the RNAGym collection of RNA variant scans (doi:10.7554/elife.80360).

B1: Hairpin Ribozyme (parent)
chain: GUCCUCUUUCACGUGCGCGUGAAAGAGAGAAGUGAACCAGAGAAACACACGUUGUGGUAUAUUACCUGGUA

# Variants of: B1
# Test Method Notes: self-cleavage, relative activity (ratio to wild type); higher = more cleavage; co-transcriptional
Definition: the class of an entry is the range in class A: < 0.2; class B: ≥ 0.2 and < 0.3; class C: ≥ 0.3 that contains its self-cleavage.

{"Mutation Notation": "A26U A39U", "Answer Label": "class B"}
{"Mutation Notation": "A31U U58G", "Answer Label": "class A"}
{"Mutation Notation": "U2G C4G", "Answer Label": "class A"}
{"Mutation Notation": "U5G G13C", "Answer Label": "class B"}
{"Mutation Notation": "U8A C37U", "Answer Label": "class C"}
{"Mutation Notation": "U5C A45U", "Answer Label": "class A"}
{"Mutation Notation": "U8C A44U", "Answer Label": "class A"}
{"Mutation Notation": "G25A A49G", "Answer Label": "class B"}
{"Mutation Notation": "G57U G69C", "Answer Label": "class A"}
{"Mutation Notation": "C48U U58G", "Answer Label": "class A"}
{"Mutation Notation": "G42A U60C", "Answer Label": "class C"}
